Reference source: the supplement of paper PMC9942566

# Tested on: Serratia marcescens K904 PosmB-luxCDABE reporter (pMQ747)
# ASSAY_OVERVIEW: PosmB-lux reporter fold induction (RLU/OD600 relative to no-compound control), highest over Biolog concentrations; higher = stronger reporter activation
# ASSAY_SETUP: ΔrcsB mutant CMS5177; 4 h
The label depends only on PosmB-lux reporter fold induction: true if it is at least 1, false if it is smaller.

CSc1ccc2c(c1)N(CCC1CCCCN1C)c1ccccc1S2 (stereo unspecified) [thioridazine] (Biolog plate: PM20, well positions: C1-4) ... true

Ask | Evaluate O=C(N[C@H](CO)[C@H](O)c1ccc([N+](=O)[O-])cc1)C(Cl)Cl [Chloramphenicol] (Biolog plate: PM11, well positions: F1-4) : PosmB-lux reporter fold induction at minimum 1?
Reply | true

Ask | Also check O=P(O)(O)OP(=O)(O)O [sodium pyrophosphate decahydrate] (Biolog plate: PM18, well positions: A5-8)
Reply | false

Ask | Try the compound CCN1CCN(C(=O)N[C@@H](C(=O)N[C@@H]2C(=O)N3[C@@H]2SC(C)(C)[C@@H]3C(=O)O)c2ccccc2)C(=O)C1=O [Piperacillin] (Biolog plate: PM14, well positions: F5-8)
Reply | true

Ask | Then Cc1cc(O)cc(C)c1Cl [chloroxylenol] (Biolog plate: PM16, well positions: H5-8) ?
Reply | true

Ask | Same for NC(=O)N/N=C/c1ccc([N+](=O)[O-])o1 [5-Nitro-2-furaldehyde semicarbazone] (Biolog plate: PM15, well positions: E5-8)
Reply | true

---

As shown below, each of these compounds has a reported PosmB-lux reporter fold induction value.
# Test system: Serratia marcescens K904 PosmB-luxCDABE reporter (pMQ747)
# ASSAY_OVERVIEW: PosmB-lux reporter fold induction (RLU/OD600 relative to no-compound control), highest over Biolog concentrations; higher = stronger reporter activation
# ASSAY_SETUP: ΔrcsB mutant CMS5177; 4 h
Enter a number only.

Solved entries:
Cc1nnc(SCC2=C(C(=O)O)N3C(=O)[C@@H](NC(=O)Cn4cnnn4)[C@H]3SC2)s1 [Cefazolin] (Biolog plate: PM11, well positions: E1-4) ... 1.12
N.N.N.N.N.N.[Cl-].[Cl-].[Cl-].[Co+3] [hexammine cobalt (III) chloride] (Biolog plate: PM19, well positions: H1-4) ... 1.35
[Na+].[Na+].[O]=[W](=[O])([O-])[O-] [sodium tungstate] (Biolog plate: PM17, well positions: E9-12) ... 0.99
CC1(C)S[C@@H]2[C@H](NC(=O)C(C(=O)O)c3ccccc3)C(=O)N2[C@H]1C(=O)O (stereo partly specified) [Carbenicillin] (Biolog plate: PM12, well positions: A9-12) ... 1.03
c1ccc(-c2ccccn2)nc1 [2,2'-Dipyridyl] (Biolog plate: PM13, well positions: B5-8) ... 1.71

Ask | Give the reported PosmB-lux reporter fold induction for CC1(C)S[C@@H]2[C@H](NC(=O)[C@H](NC(=O)N3CCNC3=O)c3ccccc3)C(=O)N2[C@H]1C(=O)O [Azlocillin] (Biolog plate: PM13, well positions: B1-4) (system: Serratia marcescens K904 PosmB-luxCDABE reporter (pMQ747)).
Reply | 1.27

---

# Test system: Serratia marcescens K904 PosmB-luxCDABE reporter (pMQ747)
# ASSAY_OVERVIEW: PosmB-lux reporter fold induction (RLU/OD600 relative to no-compound control), highest over Biolog concentrations; higher = stronger Rcs reporter activation
# ASSAY_SETUP: wild type K904; 4 h
REPORTED_PROPERTY: PosmB-lux reporter fold induction

Worked cases, answers included:
O=C(O)c1ccccc1S [Thiosalicylic acid] (Biolog plate: PM17, well positions: A9-12) ... 1.12
CCS(=O)(=O)CCn1c([N+](=O)[O-])cnc1C [tinidazole] (Biolog plate: PM18, well positions: F5-8) ... 1.53

// switching to the query compound
Ask | Which PosmB-lux reporter fold induction value is on record for N=C(NCCCCCCNC(=N)NC(=N)Nc1ccc(Cl)cc1)NC(=N)Nc1ccc(Cl)cc1 [chlorhexidine] (Biolog plate: PM19, well positions: C1-4) ?
Reply | 1.21
